Target: Kir1.1 (ROMK1) (Homo sapiens (Human), UniProt P48048)
Sequence (P48048 whole entry, species assumed): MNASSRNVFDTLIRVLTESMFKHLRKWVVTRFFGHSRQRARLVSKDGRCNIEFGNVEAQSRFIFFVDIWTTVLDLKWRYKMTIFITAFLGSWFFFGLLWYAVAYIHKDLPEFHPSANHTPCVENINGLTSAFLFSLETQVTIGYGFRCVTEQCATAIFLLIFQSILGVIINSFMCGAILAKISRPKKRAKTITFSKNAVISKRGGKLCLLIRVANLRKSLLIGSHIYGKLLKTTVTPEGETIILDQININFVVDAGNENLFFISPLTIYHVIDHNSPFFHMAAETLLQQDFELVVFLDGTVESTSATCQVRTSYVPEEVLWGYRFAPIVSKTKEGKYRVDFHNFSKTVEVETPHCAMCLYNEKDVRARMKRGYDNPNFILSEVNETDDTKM
Experiment: Electrophysiology Assay (whole cell voltage clamp, IonWorks Quattro)
Assay type: cell-based
Settings: Chinese hamster ovary cells stably expressing Kir1.1; block during voltage step to 0 mV; read-out: Electrophysiology IC50
Counter-ions that a name gives are not always drawn.
Kindly state IC50 for each of the entries shown.
Field format: number, assumed nM, no unit text.

INPUT: Which IC50 is listed for Cc1c(C(O)CN2CCN3C[C@@H](c4ccc5c(c4C)COC5=O)OC[C@@H]3C2)ccc(F)c1C#N (stereo partly shown) [Example 13, trifluoroacetate] ?
OUTPUT: 220

INPUT: Which IC50 is listed for Cc1c([C@@H]2CN3CCN(CC(O)c4ccc5c(c4C4CC4)COC5=O)C[C@H]3CO2)ccc2c1COC2=O (single isomer, unassigned) [Example 51] ?
OUTPUT: 230

INPUT: Which IC50 is listed for Cc1c([C@@H](O)CN2CCN3C[C@H](c4ccc(C#N)c(F)c4)OC[C@H]3C2)ccc2c1COC2=O ?
OUTPUT: 90

INPUT: Which IC50 is listed for COc1cc(CCN2CCN3C[C@@H](c4ccc5c(c4)COC5=O)OC[C@@H]3C2)ccc1C#N ?
OUTPUT: 120

Origin of measurements: patent US9604998B2
